Test target: fucosyl α1,3/1,4 transferase (FucT; EC 2.4.1.65), recombinant (Homo sapiens)
Construct: gift of Dr. J. B. Lowe, University of Michigan
Sequence (P21217 1-361): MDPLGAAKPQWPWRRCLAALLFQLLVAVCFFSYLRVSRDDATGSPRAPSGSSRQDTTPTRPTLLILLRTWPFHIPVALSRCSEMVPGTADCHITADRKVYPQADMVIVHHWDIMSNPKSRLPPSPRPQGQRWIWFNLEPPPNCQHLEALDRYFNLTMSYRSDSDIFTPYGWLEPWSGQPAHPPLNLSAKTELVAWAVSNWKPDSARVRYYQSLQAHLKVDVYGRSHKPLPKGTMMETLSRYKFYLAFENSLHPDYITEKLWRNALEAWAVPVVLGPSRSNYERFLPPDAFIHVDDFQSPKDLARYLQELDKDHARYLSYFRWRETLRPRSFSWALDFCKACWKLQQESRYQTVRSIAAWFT
Measurement notes: Fucosyltransferase inhibition studies (IC50)
Assay type: biochemical
Experimental setup: Example 8; 2 mM N-acetyllactosamine
Test readout: IC50

Reported fucosyl α1,3/1,4 transferase (FucT; EC 2.4.1.65), recombinant (Homo sapiens) IC50 for item OC[C@H]1NC[C@H](O)[C@@H](O)[C@@H]1O[C@@H]1O[C@H](CO)[C@H](O)[C@H](O)[C@H]1O [Compound 10a] was ~40 mM

###

Test target: fucosyl α1,3/1,4 transferase (FucT; EC 2.4.1.65), recombinant (Homo sapiens, UniProt P21217)
Construct: gift of Dr. J. B. Lowe, University of Michigan
Measurement notes: Fucosyltransferase inhibition studies (IC50)
Assay type: biochemical
Experimental setup: Table 1a; 2 mM N-acetyllactosamine, 14C-GDP-fucose, pH 6.2, 37° C.; IC50 extrapolated from linear fit
Test readout: IC50 (mM)
Numbers only, in mM.

The compound listed as OC[C@H]1NC[C@H](O)[C@@H](O)[C@@H]1O[C@@H]1O[C@H](CO)[C@H](O)[C@H](O)[C@H]1O [Compound 10a] has a reported IC50 of 40

###

Kindly state Ki for each of the entries shown.
Test target: β-Glucosidase (Sweet Almond)
Measurement notes: Glycosidase inhibition, β-glucosidase (SA)
Experimental setup: p-nitrophenyl β-D-glucoside, PIPES-NaOAc buffer pH 6.5

Illustrative cases are given below, each with its answer.
# Compound, Test readout, Assay value
measured = [
    ("C[C@H]1NC[C@H](O)[C@@H](O)[C@@H]1O [Compound 103c]", "Ki", "780 µM"),
    ("C[C@@H]1[C@@H](O)[C@H](O)[C@@H](O)CN1C [Compound 117]", "Ki", "140 µM"),
]

Here's the next entry for you.
The compound listed as C[C@@H]1[C@@H](O)[C@H](O)[C@@H](O)C[N@+]1(C)[O-] [Compound 118] has a reported Ki of 1490 µM
